Kindly supply the reported IC50 values for the records listed here.
Target: [^3 H]Spiroperidol Binding (Rattus norvegicus, UniProt P61169)
Sequence (P61169 whole entry): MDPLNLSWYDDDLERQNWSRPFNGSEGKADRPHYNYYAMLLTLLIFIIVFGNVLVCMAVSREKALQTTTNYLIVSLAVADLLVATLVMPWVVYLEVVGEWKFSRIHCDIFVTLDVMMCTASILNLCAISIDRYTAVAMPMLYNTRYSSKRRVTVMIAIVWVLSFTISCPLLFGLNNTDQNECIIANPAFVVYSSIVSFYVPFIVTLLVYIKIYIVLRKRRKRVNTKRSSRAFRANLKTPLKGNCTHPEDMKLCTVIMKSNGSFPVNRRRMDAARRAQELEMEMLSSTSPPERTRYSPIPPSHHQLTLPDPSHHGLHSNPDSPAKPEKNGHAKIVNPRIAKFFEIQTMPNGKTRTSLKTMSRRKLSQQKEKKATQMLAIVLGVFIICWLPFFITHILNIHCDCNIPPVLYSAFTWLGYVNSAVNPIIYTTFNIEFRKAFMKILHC
Experiment: Inhibition of [^3 H]Spiroperidol Binding, receptor assay
Field: numeric (nM). Do not append units.

Observed IC50 on [^3 H]Spiroperidol Binding (Rattus norvegicus, UniProt P61169), entry C(#Cc1ccccn1)CCN1CC=C(c2ccccc2)CC1 , equals 189

Observed IC50 on [^3 H]Spiroperidol Binding (Rattus norvegicus, UniProt P61169), entry C(#Cc1cccnc1)CCN1CC=C(c2ccccc2)CC1 , equals 50

Observed IC50 on [^3 H]Spiroperidol Binding (Rattus norvegicus, UniProt P61169), entry C(#Cc1cccnc1)CCN1CC=C(c2cccs2)CC1 , equals 354

Observed IC50 on [^3 H]Spiroperidol Binding (Rattus norvegicus, UniProt P61169), entry C(#Cc1cncc2ccccc12)CCN1CC=C(c2ccccc2)CC1 , equals 101

Observed IC50 on [^3 H]Spiroperidol Binding (Rattus norvegicus, UniProt P61169), entry O=C(Nc1ccc(C#CCCN2CC=C(c3ccccc3)CC2)nc1)c1cccs1 , equals 1090

Observed IC50 on [^3 H]Spiroperidol Binding (Rattus norvegicus, UniProt P61169), entry C(#Cc1ccncc1)CCN1CC=C(c2ccccc2)CC1 , equals 43.4

Observed IC50 on [^3 H]Spiroperidol Binding (Rattus norvegicus, UniProt P61169), entry CC(=O)Nc1ccc(C#CCCN2CC=C(c3ccccc3)CC2)cc1 , equals 50

Observed IC50 on [^3 H]Spiroperidol Binding (Rattus norvegicus, UniProt P61169), entry O=[N+]([O-])c1ccc(C#CCCN2CC=C(c3ccccc3)CC2)cc1 , equals 394

Observed IC50 on [^3 H]Spiroperidol Binding (Rattus norvegicus, UniProt P61169), entry CS(=O)(=O)N(c1ccc(C#CCCN2CC=C(c3ccccc3)CC2)nc1)S(C)(=O)=O , equals 94

Taken from patent US5466698A.
